These data points were gathered from the NIST ThermoML archive (doi:10.1021/je700662a).

- procedureText: molar heat capacity at constant pressure
- assayConditions: 238 K; 101.33 kPa; Crystal 2; Large sample (1 g) DSC
reportedProperty: molar heat capacity at constant pressure (J/K/mol)

INSERT INTO results (molecule, number) VALUES
  ('CCCCC(N)=O [pentanamide]', 183.4),
  ('CCCCCCCCCCCC(N)=O [dodecanamide]', 251.2),
  ('CCCCCCCCCCCCCCCCCC(N)=O [octadecanamide]', 367.6),
  ('CCCCCCCC(N)=O [octanamide]', 234.3),
  ('CCCCCCCCCCCCCCCC(N)=O [hexadecanamide]', 302.6),
  ('CCCCCC(N)=O [hexanamide]', 160.1);

---

In this section we review reported molar heat capacity at constant pressure values for a set of compounds.
- procedureText: molar heat capacity at constant pressure
- assayConditions: 293 K; 101.33 kPa; Crystal 2; Large sample (1 g) DSC
Numbers after ± are expanded uncertainties.
reportedProperty: molar heat capacity at constant pressure

INSERT INTO results (compound, result) VALUES
  ('CCCCCCCCCC(N)=O [decanamide]', '270.2 ± 4.2 J/K/mol'),
  ('CCCCC(N)=O [pentanamide]', '190 ± 3.1 J/K/mol'),
  ('CCCCCCCCCCCCCCCC(N)=O [hexadecanamide]', '387.6 ± 6.1 J/K/mol'),
  ('CCCCCCCC(N)=O [octanamide]', '246.5 ± 3.8 J/K/mol');

---

In this section we review reported molar heat capacity at constant pressure values for a set of compounds.
- procedureText: molar heat capacity at constant pressure
- assayConditions: 253 K; 101.33 kPa; Crystal 2; Large sample (1 g) DSC
reportedProperty: molar heat capacity at constant pressure (J/K/mol)

INSERT INTO results (compound, reportedproperty, measurementunits, number) VALUES
  ('CCCCCCCCCCCC(N)=O [dodecanamide]', 'molar heat capacity at constant pressure', 'J/K/mol', 269.2),
  ('CCCCCCCCCCCCCCCC(N)=O [hexadecanamide]', 'molar heat capacity at constant pressure', 'J/K/mol', 323.8),
  ('CCCCCCCCCCCCCCCCCC(N)=O [octadecanamide]', 'molar heat capacity at constant pressure', 'J/K/mol', 393.6),
  ('CCCCCCCC(N)=O [octanamide]', 'molar heat capacity at constant pressure', 'J/K/mol', 233.9),
  ('CCCCCC(N)=O [hexanamide]', 'molar heat capacity at constant pressure', 'J/K/mol', 173.1),
  ('CCCCC(N)=O [pentanamide]', 'molar heat capacity at constant pressure', 'J/K/mol', 199.8);

---

- procedureText: molar heat capacity at constant pressure
- assayConditions: 208 K; 101.33 kPa; Crystal 2; Large sample (1 g) DSC
± gives the expanded uncertainty stated by the source.
In this section we review reported molar heat capacity at constant pressure values for a set of compounds.
reportedProperty: molar heat capacity at constant pressure

INSERT INTO results (compound, result) VALUES
  ('CCCCCCCCCCCCCCCC(N)=O [hexadecanamide]', '267.5 ± 4.3 J/K/mol'),
  ('CCCCCCCC(N)=O [octanamide]', '197.1 ± 3.2 J/K/mol'),
  ('CCCCCCCCCCCC(N)=O [dodecanamide]', '223.3 ± 3.6 J/K/mol'),
  ('CCCCCCCCCCCCCCCCCC(N)=O [octadecanamide]', '318.2 ± 5 J/K/mol'),
  ('CCCCCC(N)=O [hexanamide]', '135.8 ± 2.2 J/K/mol');
